# System: Pseudomonas 2 (Pseudomonas vancouverensis)
# experiment-summary: relative growth (AUC of 72 h growth curve relative to DMSO control, dAUC) (ratio); higher = more growth (less inhibition), active = hit call of the paper
# stated-conditions: 20 µM
Catalogue of relative growth values
measured-metric: relative growth

>>> val("O=C1C2(Cl)C3(Cl)C4(Cl)C(Cl)(Cl)C5(Cl)C3(Cl)C1(Cl)C5(Cl)C24Cl (stereo unspecified)")
0.962
>>> val("N#CC(CCc1ccc(Cl)cc1)(Cn1cncn1)c1ccccc1 (stereo unspecified)")
0.921
>>> val("Cc1nc(N(C)C)nc(OC(=O)N(C)C)c1C")
0.96
>>> val("CC(C)OC(=O)Nc1cccc(Cl)c1")
0.958
>>> val("CCCCCCCCCCCCNC(=N)N")
0.94
>>> val("COc1ncc(F)c2nc(S(=O)(=O)Nc3c(F)cccc3F)nn12")
1.02
